Every entry's value here was drawn from ChEMBL document CHEMBL5038588.

Assay: AUC (0 to t) in ICR mouse at 15 mg/kg, po measured upto 24 hrs by LC/MS/MS analysis
Type: ADME, organism-based
Set-up: route oral, dose 15 mg/kg, time <=24
Conditions: in vivo
Reported AUC(0-t) at 24 h values for a set of compounds
Write the answer as a number in ng·h/mL, unit excluded.

Cc1ccc(C(=O)Nc2ccc(CN3CCN(C)CC3)c(C(F)(F)F)c2)cc1C#Cc1cnc2cccnn12	363

Could you now look at the following compound, please?
Q) For `Cc1ccc(C(=O)Nc2ccc3c(c2)C(F)(F)C[C@@H]3N2CCN(C)CC2)cc1C#Cc1cnc2cccnn12` , what is its reported AUC(0-t) at 24 h?
A) 1390

---

Experiment: AUC (0 to infinity) in ICR mouse at 15 mg/kg, po measured upto 24 hrs by LC/MS/MS analysis
Type: ADME, organism-based
Design: route oral, dose 15 mg/kg, time <=24
Conditions: in vivo
Reported AUC(0-inf) values for a set of compounds

Cc1ccc(C(=O)Nc2ccc3c(c2)C(F)(F)C[C@@H]3N2CCN(C)CC2)cc1C#Cc1cnc2cccnn12	1440 ng·h/mL

Could you now look at the following compound, please?
Q) For `Cc1ccc(C(=O)Nc2ccc(CN3CCN(C)CC3)c(C(F)(F)F)c2)cc1C#Cc1cnc2cccnn12` , what is its reported AUC(0-inf)?
A) 432 ng·h/mL

---

Test: MRT in ICR mouse at 15 mg/kg, po measured upto 24 hrs by LC/MS/MS analysis
Format: ADME, organism-based
Settings: in vivo
property: MRT (h)
Write the answer as a number in h, unit excluded.

Cc1ccc(C(=O)Nc2ccc3c(c2)C(F)(F)C[C@@H]3N2CCN(C)CC2)cc1C#Cc1cnc2cccnn12	8.22

Could you now look at the following molecule, please?
Q) For `Cc1ccc(C(=O)Nc2ccc(CN3CCN(C)CC3)c(C(F)(F)F)c2)cc1C#Cc1cnc2cccnn12` , what is its reported MRT?
A) 5.25

---

Test: AUC (0 to infinity) in ICR mouse at 5 mg/kg, iv measured upto 24 hrs by LC/MS/MS analysis
Type: ADME, organism-based
Design: route intravenous, dose 5 mg/kg, time <=24
Details: in vivo
property: AUC(0-inf) (ng·h/mL)
Write the answer as a number in ng·h/mL, unit excluded.

Cc1ccc(C(=O)Nc2ccc(CN3CCN(C)CC3)c(C(F)(F)F)c2)cc1C#Cc1cnc2cccnn12	528

Could you now look at the following compound, please?
Q) For `Cc1ccc(C(=O)Nc2ccc3c(c2)C(F)(F)C[C@@H]3N2CCN(C)CC2)cc1C#Cc1cnc2cccnn12` , what is its reported AUC(0-inf)?
A) 1500

---

Test: Toxicity in ICR mouse assessed as maximum tolerated dose administered as single oral dose for 14 days
Details: in vivo, time 14 day
property: MTD at 336 h (mg/kg)
Write the answer as a number in mg/kg, unit excluded.

Q) For `Cc1ccc(C(=O)Nc2ccc3c(c2)C(F)(F)C[C@@H]3N2CCN(C)CC2)cc1C#Cc1cnc2cccnn12` , what is its reported MTD at 336 h?
A) 100

---

Reported Cmax values for a set of compounds
Assay: Cmax in ICR mouse at 5 mg/kg, iv measured upto 24 hrs by LC/MS/MS analysis
Assay type: ADME, organism-based
Parameters: route intravenous, dose 5 mg/kg, time <=24
Settings: in vivo
Write the answer as a number in ng/mL, unit excluded.

Cc1ccc(C(=O)Nc2ccc(CN3CCN(C)CC3)c(C(F)(F)F)c2)cc1C#Cc1cnc2cccnn12	270

Q) For `Cc1ccc(C(=O)Nc2ccc3c(c2)C(F)(F)C[C@@H]3N2CCN(C)CC2)cc1C#Cc1cnc2cccnn12` , what is its reported Cmax?
A) 1470
